B1: library; numbered along this chain (parent)
chain: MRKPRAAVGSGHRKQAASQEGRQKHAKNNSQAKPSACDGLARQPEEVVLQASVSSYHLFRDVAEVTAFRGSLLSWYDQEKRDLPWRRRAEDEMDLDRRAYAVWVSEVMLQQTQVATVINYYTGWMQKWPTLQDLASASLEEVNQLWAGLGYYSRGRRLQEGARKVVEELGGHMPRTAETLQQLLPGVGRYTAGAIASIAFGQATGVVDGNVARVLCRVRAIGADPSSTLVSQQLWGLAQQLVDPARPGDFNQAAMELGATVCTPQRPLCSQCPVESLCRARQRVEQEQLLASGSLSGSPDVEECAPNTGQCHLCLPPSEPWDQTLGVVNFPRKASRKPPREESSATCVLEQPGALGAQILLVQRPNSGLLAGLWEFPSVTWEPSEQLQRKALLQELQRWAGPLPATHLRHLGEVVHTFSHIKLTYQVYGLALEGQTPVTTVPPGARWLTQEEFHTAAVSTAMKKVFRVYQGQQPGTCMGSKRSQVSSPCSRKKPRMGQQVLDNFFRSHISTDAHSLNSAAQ

Variants of: B1
measurement.description: 8OG:A repair function score (normalized; synonymous = 0, nonsense = -1) (normalized log-likelihood score); higher = more repair activity (WT-like);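 note: cells sorted at 72 h after reporter transfection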
particulars: with 8OG:A DNA repair reporter (GFP) in HEK-293 MUTYH KO cells
readout: 8OG:A repair function score
Please state the value as a number alone, without comment.

| mutation.notation | observed.measurement |
| --- | --- |
| Q358C | 0.0229 |
| H416M | -0.755 |
| R81G | -0.905 |
| T324C | -0.0556 |
| Q499S | 0.00646 |
| L169G | -0.273 |
| T346W | -0.751 |
| G258M | -1.19 |
| N503M | -9.05e-05 |
| N210G | -0.962 |

Q) Can you share its 8OG:A repair function score? I mean this variant: "A513T"
A) 0.000215

Q) I have this variant here, "A89K" , and I need its recorded 8OG:A repair function score.
A) -0.0427
